# Species: Rattus norvegicus
# Test Method Notes: DrugMatrix - Regimen: Daily Repeat
# Format: toxicity, organism-based, Sprague-Dawley
# Set-up: regimen Daily Repeat, gender Male, age 6-8 weeks
# Test Settings: in vivo, po, 0 mg/kg, 120 h, tissue Plasma, route oral GAVAGE, dose level Control, time 5 day, vehicle 100 % WATER
Each item that follows carries a reported SODIUM.
State the answer as a number, implicitly in MEQ/L.

Molecule	Measure Unit	SODIUM
O.O.O.O.O.O.[Cl-].[Cl-].[Sr+2] [STRONTIUM CHLORIDE HEXAHYDRATE]	MEQ/L	143.57

Per the records, this molecule ( CS(=O)(=O)c1ccc([C@@H](O)[C@@H](CO)NC(=O)C(Cl)Cl)cc1 ) has SODIUM equal to 143.57

Lab note: measured SODIUM of NNc1nncc2ccccc12 [HYDRALAZINE] was 140.53

Entry under test: Oc1cccc(O)c1O . Its SODIUM was 148.17

Entry C[C@]12C=CC(=O)C=C1CC[C@@H]1[C@@H]2[C@@H](O)C[C@@]2(C)[C@H]1CC[C@]2(O)C(=O)CO — recorded SODIUM = 141.88

Summary for this molecule, CCN(CC)CCNC(=O)c1cc(S(C)(=O)=O)ccc1OC [TIAPRIDE] : SODIUM is 143.57

# SODIUM (molecule: CC(C)(C)CC(C)(C)c1ccc(OCCOCC[N+](C)(C)Cc2ccccc2)cc1.[Cl-] [BENZETHONIUM CHLORIDE] ) is 140.53

SODIUM for Cn1c(=O)c2[nH]cnc2n(C)c1=O.O is 146.95

Lab book: SODIUM of CN1[C@@H]2CC[C@H]1C[C@@H](OC(=O)C(CO)c1ccccc1)C2 (stereo partly drawn) noted as 141.85

Entry CC(C)NCC(O)c1ccc(NS(C)(=O)=O)cc1 (stereo not drawn) ; SODIUM = 148.37

According to the records, this molecule CN(C)CCOC(c1ccccc1)c1ccccc1 [DIPHENHYDRAMINE] displays SODIUM of 140.53

Summary for this molecule, Cc1ccc(NC(=O)c2ccc(CN3CCN(C)CC3)cc2)cc1Nc1nccc(-c2cccnc2)n1 : SODIUM is 143.57

The recorded SODIUM for CN(C)CC[C@@H](c1ccc(Cl)cc1)c1ccccn1 is 142.43

====

The following compounds are listed with their measured HEMATOCRIT values.
# Organism: Rattus norvegicus
# Test Method Notes: DrugMatrix - Regimen: Daily Repeat
# Type: toxicity, organism-based, Sprague-Dawley
# Parameters: regimen Daily Repeat, gender Male, age 6-8 weeks
# Test Settings: in vivo, po, 0 mg/kg, 120 h, tissue Blood, route oral GAVAGE, dose level Control, time 5 day, […]
Report the figure along with its unit, number first.

Record excerpt, results attached:
Compound	Measured Quantity	Recorded Value
COc1cc(N)c(Cl)cc1C(=O)NC1CCN(CCCOc2ccc(F)cc2)CC1OC (centres undefined) [CISAPRIDE]	HEMATOCRIT	34.25%
CO[C@H]1/C=C/O[C@@]2(C)Oc3c(C)c(O)c4c(O)c(c(/C=N/N5CCN(C6CCCC6)CC5)c(O)c4c3C2=O)NC(=O)/C(C)=C\C=C\[C@H](C)[C@H](O)[C@@H](C)[C@@H](O)[C@@H](C)[C@H](OC(C)=O)[C@@H]1C [RIFAPENTINE]	HEMATOCRIT	36.3%
Clc1ccc(COC(Cn2ccnc2)c2ccc(Cl)cc2Cl)cc1 (centres undefined) [ECONAZOLE]	HEMATOCRIT	32.5%

Moving on to another compound below.
GET /value?item= CC(C)(C)NC(=O)[C@H]1CC[C@H]2[C@@H]3CC[C@H]4NC(=O)C=C[C@]4(C)[C@H]3CC[C@]12C [FINASTERIDE] &field=HEMATOCRIT returns 33.2%
